Target: human p38 kinase alpha (Homo sapiens)
Construct: GST (N, cleaved yes); made in house; host or cells: E. coli DH10B
Assay: p38 kinase in vitro assay, phosphorylation of biotinylated PHAS-I with 32P-ATP
Type: biochemical
Details: in vitro P38-alpha kinase inhibition; read-out: P38 alpha kinase IC50
Consider the following compounds; for each one, report its pIC50.
In simple prose, pIC50 is minus the logarithm base ten of a concentration in moles per litre.

Would you kindly share the measured pIC50 for O=C(NC(Cc1ccccc1)c1[nH]nc(-c2ccc(F)cc2)c1-c1ccncc1)c1ccc(I)cc1 (centres unmarked) [Example B-0807] ?
4.97

Can you share its pIC50? I mean this compound: CCS(=O)(=O)NC(CCC(=O)NC)c1[nH]nc(-c2ccc(F)cc2)c1-c1ccncc1 (centres unmarked) [Example B-0877]
5.93

What value of measured pIC50 is listed for O=C(NC(Cc1ccccc1)c1[nH]nc(-c2ccc(F)cc2)c1-c1ccncc1)N1CCOCC1 (centres unmarked) [Example B-0772] ?
6.10

What measured pIC50 goes with O=C(NCCc1[nH]nc(-c2ccc(F)cc2)c1-c1ccncc1)c1cccc(C(F)(F)F)c1F [Example B-1138] ?
5.74

Name the reported pIC50 value associated with the compound O=C(NC(Cc1ccccc1)c1[nH]nc(-c2ccc(F)cc2)c1-c1ccncc1)c1ccccc1I (centres unmarked) [Example B-0798]
5.76

# input compound: CC(=O)OCC(=O)NC(C)c1[nH]nc(-c2ccc(F)cc2)c1-c1ccncc1 (centres unmarked) [Example B-0530] ; wanted: its pIC50
5.26

Query: pIC50; subject: CCNC(=O)NC(C)c1[nH]nc(-c2ccc(F)cc2)c1-c1ccncc1 (centres unmarked) [Example B-0598]
5.67

Report pIC50 for CC(NC(=O)c1cccc(Br)c1)c1[nH]nc(-c2ccc(F)cc2)c1-c1ccncc1 (centres unmarked) [Example B-0539] please.
5.55

###

Target: human p38 kinase alpha (Homo sapiens, UniProt Q16539)
Construct: GST (N, cleaved yes); made in house; host or cells: E. coli DH10B
Sequence (Q16539 whole entry): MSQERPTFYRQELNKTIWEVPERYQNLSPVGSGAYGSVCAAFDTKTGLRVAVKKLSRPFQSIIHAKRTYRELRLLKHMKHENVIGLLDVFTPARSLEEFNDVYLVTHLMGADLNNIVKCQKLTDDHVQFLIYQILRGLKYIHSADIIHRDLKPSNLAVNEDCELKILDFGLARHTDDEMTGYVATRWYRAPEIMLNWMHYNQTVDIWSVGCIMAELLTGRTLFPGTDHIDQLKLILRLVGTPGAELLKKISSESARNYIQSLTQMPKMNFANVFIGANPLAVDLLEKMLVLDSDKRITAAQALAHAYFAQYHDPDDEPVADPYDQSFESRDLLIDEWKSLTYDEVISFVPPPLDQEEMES
Experiment: p38 kinase in vitro assay, phosphorylation of biotinylated PHAS-I with 32P-ATP
Format: biochemical
Conditions: Table 8; 1% DMSO; read-out: p38α Kinase Assay IC50
Where a name gives a salt, the structure may show the parent alone.
assay.readout: pIC50
In textbook form, pIC50 equals minus log to base ten of the concentration in mol/L.

Value lookup for pIC50; key = `CN1CCN(Cc2n[nH]c(-c3ccc(F)cc3)c2-c2ccncc2)CC1`
7.44

Entry `Clc1ccc(-c2[nH]nc(N3CCNCC3)c2-c2ccncc2)cc1` : reported pIC50 = ?
7.92

Quick check: pIC50 of COC(=O)N1CCN(c2[nH]nc(-c3ccc(Cl)cc3)c2-c2ccncc2)CC1 [Example A-319, monohydrate] ?
5.22

Give the measured pIC50 of C#CCn1nc(N2CCNCC2)c(-c2ccncc2)c1-c1ccc(Cl)cc1 [Example A-318, trihydrochloride monohydrate] .
6.54

###

Molecular target: human p38 kinase alpha (Homo sapiens, UniProt Q16539)
Construct: GST (N, cleaved yes); made in house; host or cells: E. coli DH10B
Assay: p38 kinase in vitro assay, phosphorylation of biotinylated PHAS-I with 32P-ATP
Assay type: biochemical
Conditions: in vitro P38-alpha kinase; read-out: P38 alpha kinase IC50
Provide the recorded IC50 for the entries that follow.
Only the number, expressed in nM, is required.

Please report the recorded IC50 for `O=S(=O)(c1ccccc1OC(F)(F)F)N1CCC(c2[nH]nc(-c3ccc(F)cc3)c2-c2ccncc2)CC1` .
2340

IC50 lookup needed for `Cc1c(-c2ccncc2)c(-c2ccc(F)cc2)nn1CC(=O)NCCN(C)C` , thanks.
1680

What value of IC50 has been reported for the following compound? `CCS(=O)(=O)N1CCC(c2[nH]nc(-c3ccc(F)cc3)c2-c2ccncc2)CC1`
10

Look up IC50 for this compound: `O=C(c1cccc(Br)c1)N1CCC(c2[nH]nc(-c3ccc(F)cc3)c2-c2ccncc2)CC1`
170

Name the recorded IC50 for `O=S(=O)(c1c(Cl)cccc1Cl)N1CCC(c2[nH]nc(-c3ccc(F)cc3)c2-c2ccncc2)CC1` .
2880

I have this compound here, `N#Cc1ccccc1S(=O)(=O)N1CCC(c2[nH]nc(-c3ccc(F)cc3)c2-c2ccncc2)CC1` , and I need its recorded IC50.
400

I'd like to know its IC50. The compound in question is `O=S(=O)(NCCCc1[nH]nc(-c2ccc(F)cc2)c1-c1ccncc1)c1ccc(Cl)s1`
120

###

Biological target: human p38 kinase alpha (Homo sapiens)
Construct: GST (N, cleaved yes); made in house; host or cells: E. coli DH10B
Assay: p38 kinase in vitro assay, phosphorylation of biotinylated PHAS-I with 32P-ATP
Type: biochemical
Conditions: in vitro P38-alpha kinase; read-out: P38 alpha kinase IC50
Give IC50 for every item shown.
Write the number in nM without appending the unit.

State the recorded IC50 for this entry: `O=C(NCCCc1[nH]nc(-c2ccc(F)cc2)c1-c1ccncc1)c1ccccc1F`
68

Name the recorded IC50 for `O=S(=O)(NCCCc1[nH]nc(-c2ccc(F)cc2)c1-c1ccncc1)c1ccc(Cl)cc1` .
140

###

Target: human p38 kinase alpha (Homo sapiens, UniProt Q16539)
Construct: GST (N, cleaved yes); made in house; host or cells: E. coli DH10B
Assay: p38 kinase in vitro assay, phosphorylation of biotinylated PHAS-I with 32P-ATP
Type: biochemical
Conditions: @ 10.0 uM
Procedure: The coding region of the human p38a cDNA was obtained by PCR-amplification from RNA isolated from the human monocyte cell line THP.1. […] Random primer, dNTP's and Superscript™ reagents were all purchased from Life-Technologies, Gaithersburg, Mass. The reaction was incubated at 42° C. for 1 hour. […]
assay.readout: P38 alpha kinase % inhib @ conc. (% @)
# number only, unit % @ dropped from output

# get_value(readout='P38 alpha kinase % inhib @ conc.', item= `Cc1c(-c2ccncc2)c(-c2ccc(F)cc2)nn1CC(=O)NC1CCCCCC1` )
82.0

Requested read-out: P38 alpha kinase % inhib @ conc.. Entry: `Cc1c(-c2ccncc2)c(-c2ccc(F)cc2)nn1CC(=O)N1CCSC1`
63.0

Bench note: what P38 alpha kinase % inhib @ conc. did Cc1c(-c2ccncc2)c(-c2ccc(F)cc2)nn1CC(=O)NC(C)CCc1ccccc1 (centres unmarked) show?
35.0

Need P38 alpha kinase % inhib @ conc. of Cc1c(-c2ccncc2)c(-c2ccc(F)cc2)nn1CC(=O)NC1CCCCC1C1CCCCC1 (centres unmarked) , thanks.
45.0

Requested read-out: P38 alpha kinase % inhib @ conc.. Entry: `CCOC(=O)N1CCC(NC(=O)Cn2nc(-c3ccc(F)cc3)c(-c3ccncc3)c2C)CC1`
72.0

Can you look up the measured P38 alpha kinase % inhib @ conc. of `C=Cc1ccc(S(=O)(=O)NCc2[nH]nc(-c3ccc(F)cc3)c2-c2ccncc2)cc1` for me?
67

Which measured P38 alpha kinase % inhib @ conc. value corresponds to COC(=O)C(Cc1ccc([N+](=O)[O-])cc1)NC(=O)Cn1nc(-c2ccc(F)cc2)c(-c2ccncc2)c1C (centres unmarked) ?
75.0

Form field: reported P38 alpha kinase % inhib @ conc. of Cc1c(-c2ccncc2)c(-c2ccc(F)cc2)nn1CC(=O)NC1CCSc2ccccc21 (centres unmarked)
76.0

###

System: TNF-α, U937 human histiocytic lymphoma cell line
Assay: LPS stimulation of TNF production by U937 cells
Type: cell-based
Details: Homo sapiens, U-937, @ 1.0 uM; TNF production, U937 cells stimulated with LPS; read-out: U937 Cell % inhib @ conc.
assay.readout: inhibition at 1 µM (%)
Quick reminder: number only, in %, skip the unit.

Hi! What's the reported inhibition at 1 µM for CNC(=O)CCC(NC(=O)c1ccncc1)c1[nH]nc(-c2ccc(F)cc2)c1-c1ccncc1 (stereo not drawn) on TNF-α, U937 human histiocytic lymphoma cell line?
8

inhibition at 1 µM of CNC(=O)CCC(NC(=O)C(C)C)c1[nH]nc(-c2ccc(F)cc2)c1-c1ccncc1 (stereo not drawn) on TNF-α, U937 human histiocytic lymphoma cell line?
25

For TNF-α, U937 human histiocytic lymphoma cell line, provide inhibition at 1 µM of `N#Cc1cccc(C(=O)NCCc2[nH]nc(-c3ccc(F)cc3)c2-c2ccncc2)c1` please.
7

GET /values?readout=inhibition at 1 µM&system=TNF-α, U937 human histiocytic lymphoma cell line&item= CNC(=O)CCC(NC(=O)C1CC1)c1[nH]nc(-c2ccc(F)cc2)c1-c1ccncc1 (stereo not drawn)
28

Recall the recorded inhibition at 1 µM for CNC(=O)CCC(NC(=O)Nc1c(C)cccc1C)c1[nH]nc(-c2ccc(F)cc2)c1-c1ccncc1 (stereo not drawn) with TNF-α, U937 human histiocytic lymphoma cell line and state it.
9

# value lookup — system TNF-α, U937 human histiocytic lymphoma cell line, readout inhibition at 1 µM, item `CC(=O)Nc1ccc(S(=O)(=O)NCCc2[nH]nc(-c3ccc(F)cc3)c2-c2ccncc2)cc1`
24

Given the entry O=C(NC(Cc1ccccc1)c1[nH]nc(-c2ccc(F)cc2)c1-c1ccncc1)C1CCCC1 (stereo not drawn) , what inhibition at 1 µM was observed with TNF-α, U937 human histiocytic lymphoma cell line?
3

Short answer please: inhibition at 1 µM, TNF-α, U937 human histiocytic lymphoma cell line, entry O=C(NC(Cc1ccccc1)c1[nH]nc(-c2ccc(F)cc2)c1-c1ccncc1)c1ccccc1C(F)(F)F (stereo not drawn)
25

What is its inhibition at 1 µM for TNF-α, U937 human histiocytic lymphoma cell line? Entry: `O=C(NCCc1[nH]nc(-c2ccc(F)cc2)c1-c1ccncc1)c1ccc(Cl)cc1`
29

Reported inhibition at 1 µM for TNF-α, U937 human histiocytic lymphoma cell line, given `O=C(NCCc1[nH]nc(-c2ccc(F)cc2)c1-c1ccncc1)c1ccc(F)cc1C(F)(F)F` ?
29

What inhibition at 1 µM appears in the records for this compound with TNF-α, U937 human histiocytic lymphoma cell line? CCS(=O)(=O)NC(CCC(=O)NC)c1[nH]nc(-c2ccc(F)cc2)c1-c1ccncc1 (stereo not drawn)
13

Lab note: need inhibition at 1 µM with TNF-α, U937 human histiocytic lymphoma cell line for entry `O=S(=O)(NCCc1[nH]nc(-c2ccc(F)cc2)c1-c1ccncc1)c1cccc(Cl)c1Cl` , please look it up.
21

Form field - read-out: inhibition at 1 µM; system: TNF-α, U937 human histiocytic lymphoma cell line; submitted item: `O=C(NCCc1[nH]nc(-c2ccc(F)cc2)c1-c1ccncc1)c1cccc(Cl)c1Cl`
11

# value lookup — system TNF-α, U937 human histiocytic lymphoma cell line, readout inhibition at 1 µM, item COc1ccc(CC(=O)NC(Cc2ccccc2)c2[nH]nc(-c3ccc(F)cc3)c2-c2ccncc2)cc1OC (stereo not drawn)
21

Request - read-out inhibition at 1 µM | tested on TNF-α, U937 human histiocytic lymphoma cell line | compound `O=C(NCCc1[nH]nc(-c2ccc(F)cc2)c1-c1ccncc1)c1ccc(C(F)(F)F)cc1`
30
